Assay Target: human calcitonin receptor (CTR) and RAMP3 (AMY3) in COS-7 cells (Homo sapiens, UniProt O60896+P30988)
Sequence (P30988 25-474): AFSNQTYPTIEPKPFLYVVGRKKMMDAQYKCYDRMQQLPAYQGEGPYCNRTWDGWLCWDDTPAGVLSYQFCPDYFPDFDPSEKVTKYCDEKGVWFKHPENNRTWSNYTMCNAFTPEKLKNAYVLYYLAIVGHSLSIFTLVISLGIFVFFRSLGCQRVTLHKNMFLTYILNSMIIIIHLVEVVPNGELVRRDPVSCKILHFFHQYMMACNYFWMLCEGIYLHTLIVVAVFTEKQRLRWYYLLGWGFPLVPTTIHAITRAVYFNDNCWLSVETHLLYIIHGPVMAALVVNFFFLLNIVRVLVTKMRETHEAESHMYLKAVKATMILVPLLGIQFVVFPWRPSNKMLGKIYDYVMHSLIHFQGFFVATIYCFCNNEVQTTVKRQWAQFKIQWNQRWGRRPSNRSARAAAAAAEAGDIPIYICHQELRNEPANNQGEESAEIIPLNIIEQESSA
Sequence (O60896 24-148): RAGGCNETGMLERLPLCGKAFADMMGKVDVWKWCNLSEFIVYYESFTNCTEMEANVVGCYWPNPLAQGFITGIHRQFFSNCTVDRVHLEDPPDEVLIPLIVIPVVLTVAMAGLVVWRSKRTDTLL
Experiment Notes: Amylin Receptor cAMP Assay I
Assay type: cell-based
Stated Conditions: values marked *: Amylin Receptor cAMP Assay I; COS-7/AMY3 cells; read-out: Amylin Receptor cAMP Stimulation Activity: EC50
Measurement Kind: EC50 (nM)
Give the value, in units of nM, as a plain number.

The recorded EC50 for Cc1nnc(-c2c(CCc3ccc(F)cc3)nc(CC(C)C)c(C(N)=O)c2-c2ccc(C(=O)N[C@@H]3CCc4c(F)cccc43)s2)o1 is 2.7

Entry Cc1nnc(-c2c(CCc3ccc(F)cc3)nc(CC(C)C)c(C(N)=O)c2-c2ccc(CNC(=O)c3ccc(F)c(F)c3)s2)o1 , EC50 reported as 50

// EC50 lookup, molecule = Cc1nnc(-c2c(CCc3ccc(F)cc3)nc(CC(C)C)c(C(N)=O)c2-c2cc3c(N)cccc3s2)o1 , result: 9930

Recorded result, Cc1nnc(-c2c(CN3Cc4ccccc4C3=O)nc(CC(C)C)c(C(N)=O)c2-c2ccc(C(=O)NCc3ccc(F)c(F)c3)s2)o1 , EC50: 9320

Form: molecule = COc1cc(F)cc(CNC(=O)c2ccc(-c3c(C(N)=O)c(CC(C)C)nc(CCc4ccc(F)cc4)c3-c3nnc(C)o3)s2)c1 ; EC50 = 13.9

So, Cc1nnc(-c2c(CCc3ccc(F)cc3)nc(CC(C)C)c(C(N)=O)c2N2CCC(C(=O)NCc3ccc(F)c(F)c3)C2)o1 (stereo not drawn) ? Its EC50 was 3720
